target: ERK7/MAPK15 (Homo sapiens, UniProt Q8TD08); assay: Kinase IC50, 33P labeled isotope method; assay type: biochemical; details: 20 μM ATP; read-out: IC50* ERK7/MAPK15
Sequence (Q8TD08 13-304 limits assumed): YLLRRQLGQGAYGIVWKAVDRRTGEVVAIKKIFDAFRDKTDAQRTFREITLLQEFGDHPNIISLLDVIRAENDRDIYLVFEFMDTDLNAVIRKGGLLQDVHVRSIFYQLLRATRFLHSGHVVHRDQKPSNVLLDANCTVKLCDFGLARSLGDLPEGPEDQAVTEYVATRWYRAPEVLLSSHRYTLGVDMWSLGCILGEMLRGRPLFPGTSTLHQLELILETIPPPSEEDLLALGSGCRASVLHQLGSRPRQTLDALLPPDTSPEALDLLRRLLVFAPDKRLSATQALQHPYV
property.name: IC50 (nM)
Answer with a number only, understood to be in nM.

1) CN1CCN(Cc2ccc(NC(=O)c3n[nH]cc3Nc3ncnc4occc34)cc2)CC1 | 8
2) Cc1cc2c(Nc3c[nH]nc3C(=O)Nc3ccc(CN4CCN(C)CC4)cc3)ncnc2s1 | 7
3) Cc1cc2c(Nc3c[nH]nc3C(=O)Nc3ccc(CN4CCN(C)CC4)cc3)nccc2s1 | 8

**Q:** # IC50 lookup, item "Cc1cc2c(Nc3c[nH]nc3C(=O)Nc3ccc(CN4CCN(C)CC4)cc3)ncnc2[nH]1"
**A:** 8
